# Lookup of reported % activity keyed by entry
Biological target: PhKγ2 (h) (Homo sapiens, UniProt P15735)
Construct: purchased Millipore
Sequence (P15735 1-406): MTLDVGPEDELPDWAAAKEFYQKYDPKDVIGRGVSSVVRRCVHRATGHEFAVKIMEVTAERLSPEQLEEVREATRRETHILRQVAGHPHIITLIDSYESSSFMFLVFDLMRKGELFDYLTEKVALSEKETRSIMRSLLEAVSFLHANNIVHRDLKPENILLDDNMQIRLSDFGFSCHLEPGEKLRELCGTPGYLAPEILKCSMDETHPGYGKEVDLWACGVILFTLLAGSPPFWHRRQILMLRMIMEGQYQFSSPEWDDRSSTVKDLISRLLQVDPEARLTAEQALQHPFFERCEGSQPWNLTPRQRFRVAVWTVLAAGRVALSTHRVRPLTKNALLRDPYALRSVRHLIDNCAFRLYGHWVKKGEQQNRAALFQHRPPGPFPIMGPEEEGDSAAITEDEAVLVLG
Experiment: Kinase Profiling Assay
Format: biochemical
Conditions: 100 μM
State the answer as a number, implicitly in %.

// query Returns the measured % activity for the input sequence. Input: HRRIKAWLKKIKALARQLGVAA (Mammalian) [MMI-0500]
// result 16

// query Also need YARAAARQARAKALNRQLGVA (Mammalian) [MMI-0200] , thanks.
// result 86

// query Item: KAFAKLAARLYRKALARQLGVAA [MMI-0400]
// result 38

// query Now try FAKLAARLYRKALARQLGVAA [MMI-0300] .
// result 46

###

Target: LKB1 (h) (Homo sapiens)
Sequence (Q15831 1-433): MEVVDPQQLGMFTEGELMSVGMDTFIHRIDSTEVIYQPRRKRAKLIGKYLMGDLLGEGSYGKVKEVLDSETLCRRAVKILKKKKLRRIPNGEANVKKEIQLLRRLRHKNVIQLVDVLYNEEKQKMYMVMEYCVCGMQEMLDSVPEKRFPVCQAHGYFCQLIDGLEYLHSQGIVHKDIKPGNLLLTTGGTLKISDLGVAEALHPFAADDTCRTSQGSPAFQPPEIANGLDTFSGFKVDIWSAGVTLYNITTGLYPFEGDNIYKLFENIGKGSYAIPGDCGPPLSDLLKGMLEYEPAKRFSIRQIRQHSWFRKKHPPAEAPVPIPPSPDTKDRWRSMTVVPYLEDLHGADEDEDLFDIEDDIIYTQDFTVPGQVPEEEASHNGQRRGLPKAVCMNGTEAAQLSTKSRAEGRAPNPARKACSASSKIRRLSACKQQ
Sequence (Q7RTN6 1-431 partner): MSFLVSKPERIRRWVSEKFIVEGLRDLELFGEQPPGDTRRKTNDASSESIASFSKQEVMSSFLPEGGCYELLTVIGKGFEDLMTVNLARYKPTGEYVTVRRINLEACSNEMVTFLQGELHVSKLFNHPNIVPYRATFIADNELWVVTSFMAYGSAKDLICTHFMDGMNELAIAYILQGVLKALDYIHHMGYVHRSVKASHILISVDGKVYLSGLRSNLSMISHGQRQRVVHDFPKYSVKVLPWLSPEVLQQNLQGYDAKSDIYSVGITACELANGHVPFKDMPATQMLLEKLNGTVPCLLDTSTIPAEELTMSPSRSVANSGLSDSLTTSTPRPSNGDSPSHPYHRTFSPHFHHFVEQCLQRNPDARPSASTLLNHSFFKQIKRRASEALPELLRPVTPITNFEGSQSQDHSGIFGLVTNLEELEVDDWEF
Sequence (Q9Y376 1-341 partner): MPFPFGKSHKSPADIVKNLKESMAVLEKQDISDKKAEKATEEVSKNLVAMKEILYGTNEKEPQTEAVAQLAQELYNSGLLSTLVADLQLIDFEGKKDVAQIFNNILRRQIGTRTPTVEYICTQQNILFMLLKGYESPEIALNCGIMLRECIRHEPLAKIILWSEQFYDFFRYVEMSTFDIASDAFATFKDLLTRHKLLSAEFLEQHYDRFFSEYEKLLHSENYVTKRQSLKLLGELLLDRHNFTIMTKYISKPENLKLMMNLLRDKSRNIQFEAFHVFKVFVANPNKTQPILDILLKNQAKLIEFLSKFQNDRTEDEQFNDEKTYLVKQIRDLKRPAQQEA
Assay: Kinase Profiling Assay
Assay type: biochemical
Details: 100 μM
measurement_type: % activity (%)
The response must be a number in % with no trailing unit.

Example entries begin here.
monomer_sequence: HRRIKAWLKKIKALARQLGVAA (Mammalian) [MMI-0500]
experimental_target: LKB1 (h) (Homo sapiens)
% activity, %: 51

monomer_sequence: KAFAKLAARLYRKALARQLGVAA [MMI-0400]
experimental_target: LKB1 (h) (Homo sapiens)
% activity, %: 89

monomer_sequence: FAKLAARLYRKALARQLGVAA [MMI-0300]
experimental_target: LKB1 (h) (Homo sapiens)
% activity, %: 101

// query What value of measured % activity is listed for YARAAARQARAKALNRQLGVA (Mammalian) [MMI-0200] ?
// result 99

###

target: MSK1 (h) (Homo sapiens, UniProt O75582); construct: purchased Millipore; experiment: Kinase Profiling Assay; format: biochemical; conditions: 100 μM
Sequence (O75582 whole entry): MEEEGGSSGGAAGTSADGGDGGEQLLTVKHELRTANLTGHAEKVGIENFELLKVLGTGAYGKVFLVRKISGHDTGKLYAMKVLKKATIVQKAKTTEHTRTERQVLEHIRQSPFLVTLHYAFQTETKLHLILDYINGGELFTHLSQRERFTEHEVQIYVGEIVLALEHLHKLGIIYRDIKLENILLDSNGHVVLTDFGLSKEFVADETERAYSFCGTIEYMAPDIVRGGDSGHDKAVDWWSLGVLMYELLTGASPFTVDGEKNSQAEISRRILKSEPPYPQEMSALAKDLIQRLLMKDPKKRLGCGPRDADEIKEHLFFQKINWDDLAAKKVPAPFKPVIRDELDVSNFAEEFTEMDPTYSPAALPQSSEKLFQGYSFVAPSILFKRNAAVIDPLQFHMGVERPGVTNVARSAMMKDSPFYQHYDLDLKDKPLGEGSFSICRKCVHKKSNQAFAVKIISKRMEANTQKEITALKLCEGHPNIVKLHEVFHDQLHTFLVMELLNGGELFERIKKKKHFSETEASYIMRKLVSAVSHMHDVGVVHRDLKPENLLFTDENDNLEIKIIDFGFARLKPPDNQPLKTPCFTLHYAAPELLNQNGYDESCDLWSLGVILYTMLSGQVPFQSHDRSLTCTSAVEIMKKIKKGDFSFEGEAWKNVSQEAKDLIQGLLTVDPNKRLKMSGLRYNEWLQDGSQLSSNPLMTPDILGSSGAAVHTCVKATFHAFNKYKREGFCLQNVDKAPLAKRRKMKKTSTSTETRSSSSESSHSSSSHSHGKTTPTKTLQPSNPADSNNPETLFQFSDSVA
Entries and their measured % activity follow.
Value expressed in %; do not type the unit.

monomer_sequence: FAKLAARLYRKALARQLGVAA [MMI-0300]
measurement: 32
//
monomer_sequence: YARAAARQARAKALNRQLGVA (Mammalian) [MMI-0200]
measurement: 50
//
monomer_sequence: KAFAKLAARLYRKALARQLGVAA [MMI-0400]
measurement: 28

Attention now turns to another entry.
// query Look at this sequence and give its reported % activity. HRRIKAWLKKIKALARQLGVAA (Mammalian) [MMI-0500]
// result 8

###

target: Fyn (h) (Homo sapiens); construct: purchased Millipore; experiment: Kinase Profiling Assay; assay type: biochemical; settings: 100 μM
Sequence (P06241 whole entry): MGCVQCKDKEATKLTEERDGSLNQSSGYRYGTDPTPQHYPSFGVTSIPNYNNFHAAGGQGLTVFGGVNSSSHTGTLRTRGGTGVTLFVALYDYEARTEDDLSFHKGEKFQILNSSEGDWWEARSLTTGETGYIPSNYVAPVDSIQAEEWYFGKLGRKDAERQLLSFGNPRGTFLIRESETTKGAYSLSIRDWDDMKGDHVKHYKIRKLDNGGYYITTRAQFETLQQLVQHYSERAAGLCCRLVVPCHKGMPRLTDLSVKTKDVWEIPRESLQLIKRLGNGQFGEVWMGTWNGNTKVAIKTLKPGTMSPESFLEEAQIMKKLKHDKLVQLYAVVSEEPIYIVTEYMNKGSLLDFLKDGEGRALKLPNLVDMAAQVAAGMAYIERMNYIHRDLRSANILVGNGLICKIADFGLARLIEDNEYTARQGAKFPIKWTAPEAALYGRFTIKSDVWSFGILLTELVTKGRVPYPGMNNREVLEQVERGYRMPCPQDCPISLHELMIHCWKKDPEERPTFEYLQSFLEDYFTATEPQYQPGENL
measurement_type: % activity (%)
Express it in %; write the number only.

A selection of reference data follows.
monomer_sequence: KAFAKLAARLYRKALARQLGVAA [MMI-0400]
measurement_type: % activity
readout_unit: %
measurement: 54
//
monomer_sequence: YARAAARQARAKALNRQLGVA (Mammalian) [MMI-0200]
measurement_type: % activity
readout_unit: %
measurement: 75
//
monomer_sequence: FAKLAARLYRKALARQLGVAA [MMI-0300]
measurement_type: % activity
readout_unit: %
measurement: 74

Then there is this sequence:
// query Form field: % activity recorded for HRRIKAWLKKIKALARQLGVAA (Mammalian) [MMI-0500] with Fyn (h) (Homo sapiens) (enter value)
// result 83

###

Recorded % activity, one value per entry.
target: PDGFRβ (h) (Homo sapiens, UniProt P09619); construct: purchased Millipore; test: Kinase Profiling Assay; type: biochemical; details: 100 μM
Sequence (P09619 33-1106): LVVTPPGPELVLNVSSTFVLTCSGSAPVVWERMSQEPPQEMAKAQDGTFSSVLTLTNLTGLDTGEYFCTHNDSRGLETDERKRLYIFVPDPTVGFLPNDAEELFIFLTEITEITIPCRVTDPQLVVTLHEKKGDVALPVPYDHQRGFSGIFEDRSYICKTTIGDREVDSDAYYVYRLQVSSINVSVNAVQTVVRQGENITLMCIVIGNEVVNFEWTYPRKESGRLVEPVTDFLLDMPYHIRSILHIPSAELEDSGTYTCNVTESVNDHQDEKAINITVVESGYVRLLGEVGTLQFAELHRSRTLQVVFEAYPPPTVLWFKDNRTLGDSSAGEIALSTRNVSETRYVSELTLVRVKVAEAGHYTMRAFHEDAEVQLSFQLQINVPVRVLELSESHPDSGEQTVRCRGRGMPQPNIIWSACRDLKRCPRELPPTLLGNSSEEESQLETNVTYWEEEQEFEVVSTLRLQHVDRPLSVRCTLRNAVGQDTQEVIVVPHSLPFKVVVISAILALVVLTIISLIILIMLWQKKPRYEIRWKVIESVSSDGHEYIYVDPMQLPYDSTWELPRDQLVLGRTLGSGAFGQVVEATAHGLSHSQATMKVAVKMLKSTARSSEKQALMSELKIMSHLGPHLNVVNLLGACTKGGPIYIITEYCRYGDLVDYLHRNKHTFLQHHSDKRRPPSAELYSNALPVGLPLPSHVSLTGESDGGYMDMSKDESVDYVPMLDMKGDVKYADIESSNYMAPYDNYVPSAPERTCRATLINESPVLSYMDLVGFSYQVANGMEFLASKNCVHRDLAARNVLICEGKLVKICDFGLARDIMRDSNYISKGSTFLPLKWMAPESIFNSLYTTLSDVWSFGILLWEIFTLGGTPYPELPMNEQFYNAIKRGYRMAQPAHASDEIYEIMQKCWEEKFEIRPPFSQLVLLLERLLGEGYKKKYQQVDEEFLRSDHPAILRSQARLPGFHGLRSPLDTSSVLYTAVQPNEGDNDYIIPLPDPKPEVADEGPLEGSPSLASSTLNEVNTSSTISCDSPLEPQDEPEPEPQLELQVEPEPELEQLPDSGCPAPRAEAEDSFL
Enter your answer as a number in %; do not include the unit.

Reference set (3 entries):
monomer_sequence: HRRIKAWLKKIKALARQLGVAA (Mammalian) [MMI-0500]
% activity [%]: 40
//
monomer_sequence: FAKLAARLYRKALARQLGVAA [MMI-0300]
% activity [%]: 81
//
monomer_sequence: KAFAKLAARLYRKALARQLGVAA [MMI-0400]
% activity [%]: 53

// query I am curious: what % activity value has been reported for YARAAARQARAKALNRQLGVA (Mammalian) [MMI-0200] ?
// result 137

###

We begin with a simple list: items and their reported % activity.
target: PKCα (h) (Homo sapiens, UniProt P17252); construct: purchased Millipore; assay: Kinase Profiling Assay; format: biochemical; details: 100 μM
# number only, unit % dropped from output

The examples below pair each entry with its known result.
monomer_sequence: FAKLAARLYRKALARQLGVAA [MMI-0300]
measurement: 89

monomer_sequence: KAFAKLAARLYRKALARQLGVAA [MMI-0400]
measurement: 86

monomer_sequence: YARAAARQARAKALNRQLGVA (Mammalian) [MMI-0200]
measurement: 100

We next turn to a different sequence, shown below.
// query What does the record list as % activity for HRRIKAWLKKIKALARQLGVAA (Mammalian) [MMI-0500] ?
// result 3

###

Molecular target: Met(D1246N) (h) (Homo sapiens, UniProt P08581, D1228N)
Experiment: Kinase Profiling Assay
Assay type: biochemical
Settings: 100 μM
Experimental: Every kinase activity measurement was conducted in duplicate. Specifically, in these assays, a positively charged substrate is phosphorylated with a radiolabeled phosphate group from an ATP if the kinase is not inhibited by an inhibitor peptide. The positively charged substrate then is attracted to a negatively charged filter membrane, quantified with a scintillation counter, and compared to a 100% activity control. […]
measurement_type: % activity (%)
Field format: number, assumed %, no unit text.

// query For the sequence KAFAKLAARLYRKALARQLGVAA [MMI-0400] , what % activity is on record?
// result 31
